Origin of values: paper PMC9714921

Test system: Gpu-ACR-16
Protocol Description: Voltage-clamp electrophysiology, N-AChR reconstituted in Xenopus laevis oocytes
Assay type: cell-based, Gonglyonema pulchrum
Run Conditions: concentration-response 0.3-300 μM, normalized to 300 μM; with 95% CI; read-out: EC50 NIC
Where a name gives a salt, the structure may show the parent alone.
Parameter: EC50 (nM)
Response body: numeric value in nM, unit text excluded.

Qu. Under Gpu-ACR-16: EC50 value of CN1CCC[C@H]1c1cccnc1 [NIC, (-)-nicotine hydrogen tartrate] ?
Ans. 2100

---

Target: Tzc-ACR-16 (Thelazia callipaeda)
Sequence (A0A158RD20 entry or part of it): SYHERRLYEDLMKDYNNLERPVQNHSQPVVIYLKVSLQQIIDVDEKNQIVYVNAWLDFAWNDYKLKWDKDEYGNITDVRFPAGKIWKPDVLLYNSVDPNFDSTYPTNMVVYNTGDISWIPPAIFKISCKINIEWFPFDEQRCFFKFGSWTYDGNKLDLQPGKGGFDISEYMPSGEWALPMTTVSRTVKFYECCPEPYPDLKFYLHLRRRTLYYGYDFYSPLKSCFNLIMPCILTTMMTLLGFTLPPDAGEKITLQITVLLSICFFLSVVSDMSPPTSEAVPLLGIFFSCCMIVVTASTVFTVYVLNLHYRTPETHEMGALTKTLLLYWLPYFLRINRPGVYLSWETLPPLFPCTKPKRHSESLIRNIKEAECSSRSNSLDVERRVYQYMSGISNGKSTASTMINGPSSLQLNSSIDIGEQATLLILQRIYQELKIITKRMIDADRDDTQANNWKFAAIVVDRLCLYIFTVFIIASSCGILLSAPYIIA
Protocol Description: cell-based
Format: cell-based
Run Conditions: agonist panel, Fig 5D
Structures can show the parent of a compound that is named as a salt.
Parameter: response to 100 μM ligand relative to 100 μM ACh (in words)

Qu. Under Tzc-ACR-16 (Thelazia callipaeda): response to 100 μM ligand relative to 100 μM ACh (in words) value of c1ccc([C@H]2CN3CCSC3=N2)cc1 [LEV, (-)-tetramisole hydrochloride] ?
Ans. No response

Qu. Under Tzc-ACR-16 (Thelazia callipaeda): response to 100 μM ligand relative to 100 μM ACh (in words) value of C[N+](C)(CCOc1ccccc1)Cc1ccccc1 ?
Ans. No response

Qu. Under Tzc-ACR-16 (Thelazia callipaeda): response to 100 μM ligand relative to 100 μM ACh (in words) value of Cc1ccsc1/C=C/C1=NCCCN1C ?
Ans. minimal response

Qu. Under Tzc-ACR-16 (Thelazia callipaeda): response to 100 μM ligand relative to 100 μM ACh (in words) value of CN1CCCN=C1/C=C/c1cccs1 ?
Ans. minimal response

---

Target: Dme-ACR-16 (Dracunculus medinensis)
Sequence (A0A0N4U0T6 entry or part of it): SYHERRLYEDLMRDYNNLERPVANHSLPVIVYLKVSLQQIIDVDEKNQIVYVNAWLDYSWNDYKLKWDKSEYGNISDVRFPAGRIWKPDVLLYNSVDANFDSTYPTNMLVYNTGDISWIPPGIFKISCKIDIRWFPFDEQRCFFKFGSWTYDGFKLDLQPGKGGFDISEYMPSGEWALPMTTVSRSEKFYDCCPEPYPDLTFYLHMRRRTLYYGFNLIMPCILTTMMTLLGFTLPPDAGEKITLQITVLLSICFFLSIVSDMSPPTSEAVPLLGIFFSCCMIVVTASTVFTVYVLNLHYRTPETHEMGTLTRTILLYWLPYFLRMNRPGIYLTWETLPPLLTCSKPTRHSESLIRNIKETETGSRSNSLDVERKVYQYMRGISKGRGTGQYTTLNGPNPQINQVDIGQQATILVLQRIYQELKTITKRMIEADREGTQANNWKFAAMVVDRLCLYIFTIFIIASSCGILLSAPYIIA
Protocol Description: cell-based
Type: cell-based
Run Conditions: agonist panel, Fig 5B
Parameter: response to 100 μM ligand relative to 100 μM ACh (in words)

Qu. Under Dme-ACR-16 (Dracunculus medinensis): response to 100 μM ligand relative to 100 μM ACh (in words) value of CN1CCCN=C1/C=C/c1cccc(O)c1 ?
Ans. smaller response

Qu. Under Dme-ACR-16 (Dracunculus medinensis): response to 100 μM ligand relative to 100 μM ACh (in words) value of NCCc1ccc(O)cc1 ?
Ans. No response

Qu. Under Dme-ACR-16 (Dracunculus medinensis): response to 100 μM ligand relative to 100 μM ACh (in words) value of C[N+](C)(C)CC(=O)O ?
Ans. No response

Qu. Under Dme-ACR-16 (Dracunculus medinensis): response to 100 μM ligand relative to 100 μM ACh (in words) value of NC[C@H](O)c1ccc(O)c(O)c1 [NOR, norepinephrine] ?
Ans. No response

Qu. Under Dme-ACR-16 (Dracunculus medinensis): response to 100 μM ligand relative to 100 μM ACh (in words) value of NCCc1ccc(O)c(O)c1 ?
Ans. No response

Further cases:
Qu. Under Dme-ACR-16 (Dracunculus medinensis): response to 100 μM ligand relative to 100 μM ACh (in words) value of C[N+](C)(CCOc1ccccc1)Cc1ccccc1 ?
Ans. No response

---

Target: UniProt A0A0N4U0T6
Protocol Description: cell-based
Format: cell-based
Run Conditions: agonist panel, Fig 5B
Parameter: response to 100 μM ligand relative to 100 μM ACh (in words)

Qu. What does the data say about its response to 100 μM ligand relative to 100 μM ACh (in words)? Entry: CN1CCCN=C1/C=C/c1cccs1
Ans. minimal response

Qu. What does the data say about its response to 100 μM ligand relative to 100 μM ACh (in words)? Entry: Cc1ccsc1/C=C/C1=NCCCN1C
Ans. minimal response
